Measured EC50, listed per entry.
Target: T1, MICA*004 expressed at the cell surface (human, UniProt Q29983 24-297)
T1 construct: also called C1R-MICA*004; C1R-MICA*04
T1 chain: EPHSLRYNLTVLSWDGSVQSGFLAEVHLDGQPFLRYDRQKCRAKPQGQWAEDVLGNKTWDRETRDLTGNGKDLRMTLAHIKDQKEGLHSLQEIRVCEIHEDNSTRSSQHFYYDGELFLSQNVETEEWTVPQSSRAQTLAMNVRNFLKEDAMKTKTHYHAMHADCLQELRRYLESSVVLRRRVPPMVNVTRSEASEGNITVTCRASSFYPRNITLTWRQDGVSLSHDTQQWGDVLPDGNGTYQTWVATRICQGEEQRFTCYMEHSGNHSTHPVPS
Experiment: flow cytometry on C1R transfectant cells, 4-parameter logistic fit
experimental endpoint: EC50 (µg/mL)

INSERT INTO measurements (binder, recorded_value) VALUES
  ('CHG1-M-MIA-14B4 (antibody, V domains shown, the VH entry ends with ASTK) VH: QVQLQQPGAELVRPGASVKLSCKASGYSFTSYWMNWMKQRPGQGLEWIGMIHPSDSETRLNQKFKDKATLTVDKSSSTAYMQLNSPTSEDSAVYYCAREMGPYTLDYWGQGTSVTVSS VL: DILLTQSPAILSVSPGARVSFSCRASQNIDTSIHWYQQRTNGSPRLLIKYASESISGIPSRFSGSGSGTDFTLSINSVESEDIADYYCQQSNYWPLTFGAGTKLELK', 0.24),
  ('CHG1-M-MIA-12A10 (antibody, human IgG1, V domains shown, the VH entry ends with ASTK) VH: QVQLQQSGADLVRPGASVRLSCRASGYSFTNYWMNWVKQRPGQGLEWIGMIHPSDSETRLNQKFKDKATLTVDKSSNTAYMQLSSPTSEDSAIYYCARDDFFTMDYWGQGTSVTVSS VL: DILLTQSPAILSVSPGERVSFSCRASQNIVTSIHWYQQSTNGSPRLLIKYASESISGIPSRFSGSGSGTDFTLTINSVESEDVADYYCQQSNIWPLTFGAGTKLELK', 0.26);
